- System: U251 CNS
- experiment.notes: NCI-60 one-dose screen, 48 h
- condition.details: 10 µM unless noted
About 83,000 compounds went through this panel and 20% of them were active in at least one assay; those are over-represented in the sample as a whole. Activity calls are given as the source filed them. How the source made its calls: active means growth percent below 10; inactive means the rest.
Labels: 1 for active, 0 for inactive

compound: COc1cc(-c2nc(C(=O)NCC(=O)NO)nn2-c2ccc(Cl)cc2)cc(OC)c1OC
class.label: 0

compound: O=C1CC[C@H](c2ccc(O)c3c2C(=O)[C@@H]2O[C@@H]2C3=O)c2cccc(O)c21
class.label: 0

compound: NC(CSC(c1ccccc1)(c1ccccc1)c1ccc(Cl)cc1)C(=O)O (centres undefined)
class.label: 0

compound: CN1CCN=C1c1ccc(NC(=O)c2ccc(C(=O)Nc3ccc(C4=NCCN4C)cc3)cc2)cc1
class.label: 0

compound: CCCCCCCCCCCCC[N+](C)(C)Cc1ccccc1
class.label: 1

compound: CCOc1ccc(-n2nc(C(=O)Nc3cc(OC)c(OC)c(OC)c3)nc2-c2cc(OC)c(OC)c(OC)c2)cc1
class.label: 0

compound: C=C1c2nc3ccccc3n2C=C(c2ccc(Cl)cc2)N1Cc1ccc(OC)cc1
class.label: 0

compound: COc1ccc(C2CC(c3ccc4ccccc4c3)=NN2/C=C2\SC(=S)N(NC(=O)Cc3ccccc3Nc3c(Cl)cccc3Cl)C2=O)cc1 (centres undefined)
class.label: 0

compound: N#Cc1nnn(-c2ccc(S(N)(=O)=O)cc2)c1NC(=O)CCl
class.label: 0

compound: Cc1cc(N2CCCC2)nc(NC2CCCC(Nc3ccnc4cc(Cl)ccc34)C2)n1 (centres undefined)
class.label: 1

compound: COc1cc2c(cc1O)CC[C@@H]1[C@@H]2CC[C@]2(C)[C@@H](NCCN(C)C)CC[C@@H]12
class.label: 1

compound: O=C(O)c1ccc(N=CC(=O)c2ccc(-c3ccccc3)cc2)cc1
class.label: 0

compound: CCOC(=O)c1c(C(=O)OCC)c2cc(-c3ccn4c(C(=O)c5ccccc5)c(C(=O)OCC)c(C(=O)OCC)c4c3)ccn2c1C(=O)c1ccccc1
class.label: 0

compound: C=C(C)C1CC(O)C2(C)CCCC3C2C1CC(C)C3(C)CC/C(C)=C/C(O)C1CCC(=O)c2c(OC)cc(OC)cc21 (centres undefined)
class.label: 0

compound: CCOc1ccc(-n2nc(C(=O)Nc3ccccc3)nc2-c2cc(OC)c(OC)c(OC)c2)cc1
class.label: 0

compound: COc1ccc(-c2cc(Nc3ccnc(N4CCOCC4)n3)on2)cc1
class.label: 0

compound: CCCc1cc(=O)n2c(C(=O)Nc3ccc(F)cc3)c(C(=O)Nc3ccc(F)cc3)sc2n1
class.label: 0

compound: CCOC(=O)n1cc(-c2nonc2-c2cn(C)c3ncccc23)c2ccccc21
class.label: 0

compound: COc1ccc2cc(-c3nn(-c4ccc(C(=O)O)cc4)cc3CO)ccc2c1
class.label: 0

compound: Nc1ccc(S(=O)(=O)O)c2ccc(N=Nc3ccc(N=Nc4ccc(S(=O)(=O)O)cc4)c4ccccc34)c(O)c12
class.label: 0

compound: CC1CCNC(C)C1 (centres undefined)
class.label: 0

compound: C(=N/Nc1ncc(-c2cc3cc(-c4ccccc4)ccc3o2)s1)/c1cccs1
class.label: 0

compound: O=C1Nc2c(ccc(Cl)c2Cl)/C1=C\c1ccc(C(F)(F)F)cc1
class.label: 0

compound: CC1SC(c2ccc(N(C)C)cc2)N(NC(=O)C(O)(c2ccccc2)c2ccccc2)C1=O (centres undefined)
class.label: 0

compound: O=S(=O)(Nc1ccc(NS(=O)(=O)c2ccccc2)c(Cl)c1)c1ccccc1
class.label: 0

compound: CCc1nnc(CNc2ccc(Cl)cc2)o1
class.label: 0

compound: CN1CCN(Cc2ccc(NC(=O)c3cncc(C#Cc4cncn5ccnc45)c3)cc2C(F)(F)F)CC1
class.label: 0

compound: Cc1ccc(-c2onc3c(=O)[nH]nc(-c4ccccc4)c23)cc1
class.label: 0

compound: COc1ccc(/C=C2\Oc3cc(OCCCCN4CCCC4)ccc3C2=O)cc1
class.label: 0

compound: CCOc1cc2ncc(C#N)c(Nc3ccc(OCc4cccc(F)c4)c(Cl)c3)c2cc1NC(=O)CC1CCSS1 (centres undefined)
class.label: 0

compound: COc1ccc(/C=C\c2cc(OC)c(OC)c(OC)c2)cc1OCC(=O)Nc1ccc2nc(C)sc2c1
class.label: 0

compound: Cn1cc(-c2nonc2-c2cn(C)c3ccc(F)cc23)c2cc(F)ccc21
class.label: 0

compound: O=C(/C=C/c1ccc(C(F)(F)F)cc1)Nc1ccc(C=C2c3ccccc3C(=O)c3ccccc32)cc1
class.label: 0

compound: Cc1cc(N2CCN(C)CC2)nc(NC2CCCC(Nc3ccnc4cc(Cl)ccc34)C2)n1 (centres undefined)
class.label: 1

compound: c1ccc2[nH]c(-c3ccc(Nc4nc(N5CCCC5)nc5[nH]ncc45)cc3)nc2c1
class.label: 1

compound: C=C1c2nc3ccccc3n2C=C(c2ccc(OC)cc2)N1Cc1ccccc1
class.label: 0

compound: Cc1nc(Nc2ccc(F)c(Cl)c2)sc1C(=O)O
class.label: 1

compound: O=C1/C(=C/C(Cl)=C/c2ccccc2)SC(=S)N1CCc1ccc(O)cc1
class.label: 1

compound: COc1cccc(/C=N/NC(=O)c2ccccc2Nc2ccnc(C(F)(F)F)c2)c1O
class.label: 0
